This collection of values is drawn from patent US20240216357A1.

experiment-description: in vivo
details: male, SD, rat
I'd appreciate it if you could supply half-life values for the items below.

compound	half-life
COc1ccc(-c2c(-c3ccc(C#N)c(F)c3)nc(N3C4CCC3CC(N)C4)n3ccnc23)cc1F (centres unmarked) [Example 120]	4.82 h

Moving on to another compound below.
The recorded half-life for Cc1noc2cc(-c3c(-c4ccc(C#N)c(F)c4)nc(N4C5CCC4CC(N)C5)n4ccnc34)c(F)cc12 (centres unmarked) [Example 118] is 4.67 h

---

measured-on: LSD1 (Homo sapiens (Human), UniProt O60341)
experiment-description: LSD1 enzyme activity detection (HTRF)
Assay type: biochemical
details: read-out: Inhibition of enzymatic activity of LSD1 IC50
Structures can show the parent of a compound that is named as a salt.
I'd appreciate it if you could supply IC50 values for the items below.
One number for each entry, in nM.

Below: 3 compounds and their reported IC50.
compound	measured-on	unit-string	data-value
Cc1ccc(-c2c(-c3ccc(C#N)c(F)c3)nc(N3CCC(N)CC3)c3ccoc23)cc1O [Example 268, hydrochloride]	LSD1 (Homo sapiens (Human), UniProt O60341)	nM	1.5
Cc1ccc(-c2c(-c3ccc(C#N)cc3)cc3c(N4CCC[C@@H](N)C4)cccn23)cc1 [Example 10, hydrochloride]	LSD1 (Homo sapiens (Human), UniProt O60341)	nM	79.1
Cc1noc2cc(-c3oc(C(=O)N4C5CCC4CC(N)C5)cc3-c3ccc(C#N)c(F)c3)c(F)cc12 (stereo not shown) [Example 219, hydrochloride]	LSD1 (Homo sapiens (Human), UniProt O60341)	nM	7.3

The recorded IC50 for N#Cc1ccc(-c2nc(N3CCC(N)CC3)cc(O)c2-c2ccc3[nH]nc(Cl)c3c2)cc1F [Example 20, hydrochloride] is 166

---

experiment-description: Rat PK test (IV and PO)
details: male, SD, rat, plasma, intravenous
Structures can show the parent of a compound that is named as a salt.
measured-quantity: Vd (L/kg)
Numbers only, in L/kg.

molecule	measured-quantity	data-value
COc1ccc(-c2cnc(N3CCC(N)CC3)c(C#N)c2-c2ccc(C#N)c(F)c2)cc1O [Example 66, hydrochloride]	Vd	11.3
O=C(NC1CCOCC1)c1cc(CN[C@@H]2C[C@H]2c2ccc(F)cc2)nc(-c2ccc(N3CCOCC3)cc2)n1 [Example 246, hydrochloride]	Vd	4.22
COc1ccc(-c2c(-c3ccc(C#N)c(F)c3)nc(N3CCC(N)CC3)n(C)c2=O)cc1F [(CC90011), reference compound]	Vd	19.1
COc1ccc(-c2c(OC)cc(N3CCC(N)CC3)nc2-c2ccc(C#N)c(F)c2)cc1O	Vd	13

The recorded Vd for Cc1noc2cc(-c3c(-c4ccc(C#N)c(F)c4)nc(N4CCC(N)CC4)n4ccnc34)c(F)cc12 is 14.7

---

I'd appreciate it if you could supply Vd values for the items below.
experiment-description: in vivo
details: male, SD, rat

compound	Vd
Cc1noc2cc(-c3c(-c4ccc(C#N)c(F)c4)nc(N4C5CCC4CC(N)C5)n4ccnc34)c(F)cc12 (centres unmarked)	20 L/kg

Moving on to another compound below.
The recorded Vd for COc1ccc(-c2c(-c3ccc(C#N)c(F)c3)nc(N3C4CCC3CC(N)C4)n3ccnc23)cc1F (centres unmarked) is 14.5 L/kg

---

experiment-description: Rat PK test (IV and PO)
details: Male SD rats
Counter-ions that a name gives are not always drawn.
I'd appreciate it if you could supply Cl values for the items below.
Numbers only, in mL/min/kg.

Below: 4 compounds and their reported Cl.
compound	data-value
COc1ccc(-c2c(OC)cc(N3CCC(N)CC3)nc2-c2ccc(C#N)c(F)c2)cc1O	58.3
COc1ccc(-c2cnc(N3CCC(N)CC3)c(C#N)c2-c2ccc(C#N)c(F)c2)cc1O [Example 66, hydrochloride]	68.2
COc1ccc(-c2c(-c3ccc(C#N)c(F)c3)nc(N3CCC(N)CC3)n(C)c2=O)cc1F [(CC90011), reference compound]	94.5
O=C(NC1CCOCC1)c1cc(CN[C@@H]2C[C@H]2c2ccc(F)cc2)nc(-c2ccc(N3CCOCC3)cc2)n1 [Example 246, hydrochloride]	39.6

Moving on to another compound below.
The recorded Cl for Cc1noc2cc(-c3c(-c4ccc(C#N)c(F)c4)nc(N4CCC(N)CC4)n4ccnc34)c(F)cc12 is 60.6
